system.tested: S100B (Homo sapiens, UniProt P04271)
Construct: made in house; host or cells: Escherichia coli BL21(DE3)
Sequence (P04271 whole entry): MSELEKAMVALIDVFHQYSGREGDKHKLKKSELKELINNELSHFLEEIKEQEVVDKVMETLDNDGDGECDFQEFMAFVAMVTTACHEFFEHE
protocol.summary: Pull-down assay with immobilized protein and LSM libraries
Assay type: binding
experimental.conditions: H14 probes
metric: Binding

- C[C@@H](O)[C@@H](CC(=O)N[C@H]1CCCC[C@@H]1C(=O)N[C@H]1CCCC[C@@H]1C(=O)N[C@H](CC(=O)N[C@H]1CCCC[C@@H]1C(N)=O)Cc1c[nH]c2ccccc12)NC(=O)[C@H]1CCCC[C@@H]1N [H14 TW]: binds
- CSCC[C@@H](CC(=O)N[C@H]1CCCC[C@@H]1C(N)=O)NC(=O)[C@H]1CCCC[C@@H]1NC(=O)[C@H]1CCCC[C@@H]1NC(=O)C[C@@H](NC(=O)[C@H]1CCCC[C@@H]1N)[C@@H](C)O [H14 TM]: does not
- CC[C@H](C)[C@@H](CC(=O)N[C@H]1CCCC[C@@H]1C(N)=O)NC(=O)[C@H]1CCCC[C@@H]1NC(=O)[C@H]1CCCC[C@@H]1NC(=O)C[C@@H](NC(=O)[C@H]1CCCC[C@@H]1N)[C@@H](C)O [H14 TI]: does not
- N=C(N)NCCC[C@@H](CC(=O)N[C@H]1CCCC[C@@H]1C(N)=O)NC(=O)[C@H]1CCCC[C@@H]1NC(=O)[C@H]1CCCC[C@@H]1NC(=O)C[C@H](CCCNC(=N)N)NC(=O)[C@H]1CCCC[C@@H]1N [H14 RR]: binds

###

Exercise: for every item that follows, state its recorded pKd.
system.tested: Gal-1 (Homo sapiens)
Construct: made in house; host or cells: E. coli BL21(DE3)
Sequence (P09382 whole entry): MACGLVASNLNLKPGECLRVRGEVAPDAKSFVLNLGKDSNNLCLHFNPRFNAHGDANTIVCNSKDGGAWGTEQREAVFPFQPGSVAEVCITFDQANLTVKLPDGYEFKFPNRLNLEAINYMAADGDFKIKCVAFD
protocol.summary: Pull-down assay with immobilized protein and LSM libraries
Assay type: binding
experimental.conditions: H12 library; 1:1 binding assumed; read-out: Surface mapping KD (apparent)
Give bare numbers, as −log10 of the molar value.

* NC(=O)[C@H]1CCC[C@@H]1NC(=O)[C@H]1CCC[C@@H]1NC(=O)C[C@H](Cc1ccc(O)cc1)NC(=O)[C@H]1CCC[C@@H]1NC(=O)[C@H]1CCC[C@@H]1NC(=O)C[C@H](CCC(=O)O)NC(=O)[C@H]1CCC[C@@H]1NC(=O)[C@H]1CCC[C@@H]1N [H12 EY] | 3.59

Okay, now this compound:
Prompt line: GET /values?readout=pKd&system=Gal-1 (Homo sapiens)&item= C[C@@H](CC(=O)N[C@H]1CCC[C@@H]1C(=O)N[C@H]1CCC[C@@H]1C(=O)N[C@@H](CC(=O)O)CC(=O)N[C@H]1CCC[C@@H]1C(=O)N[C@H]1CCC[C@@H]1C(N)=O)NC(=O)[C@H]1CCC[C@@H]1NC(=O)[C@H]1CCC[C@@H]1N [H12 AD]
Response line: 3.36

###

system.tested: S100A4 (Homo sapiens, UniProt P26447)
Construct: made in house; host or cells: Escherichia coli BL21(DE3)
Sequence (P26447 whole entry): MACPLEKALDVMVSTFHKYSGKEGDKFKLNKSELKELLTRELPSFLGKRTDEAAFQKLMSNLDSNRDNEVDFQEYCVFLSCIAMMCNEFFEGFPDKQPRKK
protocol.summary: Pull-down assay with immobilized protein and LSM libraries
Assay type: binding
experimental.conditions: H14 library; 1:1 binding assumed; read-out: Surface mapping KD (apparent)
Please note: Kd exactly at 80 µM is rule not met. Only values below 80 µM get rule met.

* CC(C)C[C@@H](CC(=O)N[C@H]1CCCC[C@@H]1C(N)=O)NC(=O)[C@H]1CCCC[C@@H]1NC(=O)[C@H]1CCCC[C@@H]1NC(=O)C[C@H](CC(N)=O)NC(=O)[C@H]1CCCC[C@@H]1N | rule not met
* NC(=O)[C@H]1CCCC[C@@H]1NC(=O)C[C@H](CO)NC(=O)[C@H]1CCCC[C@@H]1NC(=O)[C@H]1CCCC[C@@H]1NC(=O)C[C@H](Cc1c[nH]c2ccccc12)NC(=O)[C@H]1CCCC[C@@H]1N | rule not met
* CSCC[C@@H](CC(=O)N[C@H]1CCCC[C@@H]1C(N)=O)NC(=O)[C@H]1CCCC[C@@H]1NC(=O)[C@H]1CCCC[C@@H]1NC(=O)C[C@H](CCCNC(=N)N)NC(=O)[C@H]1CCCC[C@@H]1N | rule not met
* CSCC[C@@H](CC(=O)N[C@H]1CCCC[C@@H]1C(N)=O)NC(=O)[C@H]1CCCC[C@@H]1NC(=O)[C@H]1CCCC[C@@H]1NC(=O)C[C@H](Cc1c[nH]c2ccccc12)NC(=O)[C@H]1CCCC[C@@H]1N | rule met
* CC(C)C[C@@H](CC(=O)N[C@H]1CCCC[C@@H]1C(=O)N[C@H]1CCCC[C@@H]1C(=O)N[C@H](CC(=O)N[C@H]1CCCC[C@@H]1C(N)=O)C(C)C)NC(=O)[C@H]1CCCC[C@@H]1N | rule met

Prompt line: Criterion: Kd strictly below 80 µM. Is it met by NC(=O)[C@H]1CCCC[C@@H]1NC(=O)C[C@H](Cc1ccc(O)cc1)NC(=O)[C@H]1CCCC[C@@H]1NC(=O)[C@H]1CCCC[C@@H]1NC(=O)C[C@H](Cc1ccc(O)cc1)NC(=O)[C@H]1CCCC[C@@H]1N ?
Response line: rule met

Prompt line: What do we get for CC(C)[C@@H](CC(=O)N[C@H]1CCCC[C@@H]1C(=O)N[C@H]1CCCC[C@@H]1C(=O)N[C@H](CC(=O)N[C@H]1CCCC[C@@H]1C(N)=O)Cc1c[nH]c2ccccc12)NC(=O)[C@H]1CCCC[C@@H]1N ?
Response line: rule met

###

system.tested: Gal-1 (Homo sapiens)
Construct: made in house; host or cells: E. coli BL21(DE3)
protocol.summary: Pull-down assay with immobilized protein and LSM libraries
Assay type: binding
experimental.conditions: H12 library; 1:1 binding assumed; read-out: Surface mapping KD (apparent)
metric: pKd
Numbers only, as −log10 of the molar value.

* CC(C)[C@@H](CC(=O)N[C@H]1CCC[C@@H]1C(=O)N[C@H]1CCC[C@@H]1C(=O)N[C@@H](CCCCN)CC(=O)N[C@H]1CCC[C@@H]1C(=O)N[C@H]1CCC[C@@H]1C(N)=O)NC(=O)[C@H]1CCC[C@@H]1NC(=O)[C@H]1CCC[C@@H]1N [H12 VK] | 3.37

Okay, now this molecule:
Prompt line: Consider the molecule CC[C@H](C)[C@@H](CC(=O)N[C@H]1CCC[C@@H]1C(=O)N[C@H]1CCC[C@@H]1C(=O)N[C@H](CC(=O)N[C@H]1CCC[C@@H]1C(=O)N[C@H]1CCC[C@@H]1C(N)=O)Cc1c[nH]c2ccccc12)NC(=O)[C@H]1CCC[C@@H]1NC(=O)[C@H]1CCC[C@@H]1N [H12 IW] and give its measured pKd.
Response line: 3.43

###

system.tested: S100B (Homo sapiens)
Construct: made in house; host or cells: Escherichia coli BL21(DE3)
protocol.summary: Pull-down assay with immobilized protein and LSM libraries
Assay type: binding
experimental.conditions: H12 library; 1:1 binding assumed; read-out: Surface mapping KD (apparent)
Exercise: for every item that follows, state its recorded Kd.

- NC(=O)[C@H]1CCC[C@@H]1NC(=O)[C@H]1CCC[C@@H]1NC(=O)C[C@H](CC(=O)O)NC(=O)[C@H]1CCC[C@@H]1NC(=O)[C@H]1CCC[C@@H]1NC(=O)C[C@H](Cc1c[nH]c2ccccc12)NC(=O)[C@H]1CCC[C@@H]1NC(=O)[C@H]1CCC[C@@H]1N: 199 µM
- CC(C)[C@@H](CC(=O)N[C@H]1CCC[C@@H]1C(=O)N[C@H]1CCC[C@@H]1C(N)=O)NC(=O)[C@H]1CCC[C@@H]1NC(=O)[C@H]1CCC[C@@H]1NC(=O)C[C@H](Cc1ccccc1)NC(=O)[C@H]1CCC[C@@H]1NC(=O)[C@H]1CCC[C@@H]1N: 46 µM
- CC(C)[C@@H](CC(=O)N[C@H]1CCC[C@@H]1C(=O)N[C@H]1CCC[C@@H]1C(N)=O)NC(=O)[C@H]1CCC[C@@H]1NC(=O)[C@H]1CCC[C@@H]1NC(=O)C[C@H](Cc1c[nH]c2ccccc12)NC(=O)[C@H]1CCC[C@@H]1NC(=O)[C@H]1CCC[C@@H]1N: 38 µM

Prompt line: Consider the molecule CC[C@H](C)[C@@H](CC(=O)N[C@H]1CCC[C@@H]1C(=O)N[C@H]1CCC[C@@H]1C(=O)N[C@H](CC(=O)N[C@H]1CCC[C@@H]1C(=O)N[C@H]1CCC[C@@H]1C(N)=O)Cc1c[nH]c2ccccc12)NC(=O)[C@H]1CCC[C@@H]1NC(=O)[C@H]1CCC[C@@H]1N and give its measured Kd.
Response line: 11 µM

###

system.tested: S100B (Homo sapiens, UniProt P04271)
Construct: made in house; host or cells: Escherichia coli BL21(DE3)
protocol.summary: Pull-down assay with immobilized protein and LSM libraries
Type: binding
experimental.conditions: H12 library; 1:1 binding assumed; read-out: Surface mapping KD (apparent)
metric: Kd (µM)
Give bare numbers, in µM.

Solved cases below.
• CC(C)[C@@H](CC(=O)N[C@H]1CCC[C@@H]1C(=O)N[C@H]1CCC[C@@H]1C(N)=O)NC(=O)[C@H]1CCC[C@@H]1NC(=O)[C@H]1CCC[C@@H]1NC(=O)C[C@H](Cc1ccc(O)cc1)NC(=O)[C@H]1CCC[C@@H]1NC(=O)[C@H]1CCC[C@@H]1N = 166
• NC(=O)CC[C@@H](CC(=O)N[C@H]1CCC[C@@H]1C(=O)N[C@H]1CCC[C@@H]1C(=O)N[C@H](CC(=O)N[C@H]1CCC[C@@H]1C(=O)N[C@H]1CCC[C@@H]1C(N)=O)Cc1ccccc1)NC(=O)[C@H]1CCC[C@@H]1NC(=O)[C@H]1CCC[C@@H]1N = 461
• NC(=O)[C@H]1CCC[C@@H]1NC(=O)[C@H]1CCC[C@@H]1NC(=O)C[C@H](CC(=O)O)NC(=O)[C@H]1CCC[C@@H]1NC(=O)[C@H]1CCC[C@@H]1NC(=O)C[C@H](Cc1ccc(O)cc1)NC(=O)[C@H]1CCC[C@@H]1NC(=O)[C@H]1CCC[C@@H]1N = 430

Prompt line: Consider the compound C[C@@H](CC(=O)N[C@H]1CCC[C@@H]1C(=O)N[C@H]1CCC[C@@H]1C(=O)N[C@H](CC(=O)N[C@H]1CCC[C@@H]1C(=O)N[C@H]1CCC[C@@H]1C(N)=O)Cc1ccc(O)cc1)NC(=O)[C@H]1CCC[C@@H]1NC(=O)[C@H]1CCC[C@@H]1N and give its measured Kd.
Response line: 318
